PROCEDURE_TEXT: solvent given as SMILES
EXPERIMENTAL_SETUP: in c1cc(-n2c3ccccc3c3ccccc32)cc(-n2c3ccccc3c3ccccc32)c1
# emission maximum >= 500 nm gives true, anything below gives false

// known answers, use as guide
[[record]]
compound_smiles = "O=S(=O)(c1ccc(N2c3ccccc3N(c3ccccc3)c3ccccc32)cc1)c1ccc(N2c3ccccc3N(c3ccccc3)c3ccccc32)cc1"
group_label = "true"

[[record]]
compound_smiles = "CC(C)(C)c1ccc2c(c1)c1cc(C(C)(C)C)ccc1n2-c1ccc(-c2ccc3c(c2)C2(c4cc(-c5ccc(-n6c7ccc(C(C)(C)C)cc7c7cc(C(C)(C)C)ccc76)cc5)ccc4-3)c3ccccc3S(=O)(=O)c3ccccc32)cc1"
group_label = "false"

[[record]]
compound_smiles = "c1ccc(-c2nnc(-c3ccccc3)n2-c2ccc(N3c4ccccc4N(c4ccccc4)c4ccccc43)cc2)cc1"
group_label = "false"

[[record]]
compound_smiles = "N#Cc1cc(-n2c3ccccc3c3ncccc32)c(-n2c3ccccc3c3ncccc32)cc1C#N"
group_label = "false"


Now look at this entry.
Problem: Decide: is the reported value of emission maximum for `O=S(=O)(c1cccc(-n2c3ccccc3c3ccccc32)c1)c1cccc(-n2c3ccccc3c3ccccc32)c1` equal to or greater than 500 nm?
Result: false

---

PROCEDURE_TEXT: solvent given as SMILES
EXPERIMENTAL_SETUP: in C1CCCCC1
MEASURED_PROPERTY: emission maximum (nm)
Form entry: value (nm) — number only.

For orientation, consider the following solved cases.
[[record]]
compound_smiles = "O=C1c2ccccc2-c2ccccc21"
experimental_result = 463

[[record]]
compound_smiles = "c1ccc(-c2nc(-c3c[nH]c4ccccc34)n3ccccc23)cc1"
experimental_result = 482

[[record]]
compound_smiles = "c1ccc2c(c1)[nH]c1cccnc12"
experimental_result = 341

[[record]]
compound_smiles = "CCCCCCOc1ccc(C#Cc2ccc(C#Cc3ccc(OCCCCCC)c(OCCCCCC)c3)c3nsnc23)cc1OCCCCCC"
experimental_result = 504

[[record]]
compound_smiles = "CN(C)c1ccc2nc(/C=C/c3cc4c5c(c3)CCCN5CCC4)c(=O)oc2c1"
experimental_result = 543

[[record]]
compound_smiles = "CC1=[N+]2C(=C(c3ccc(C(=O)c4ccccc4)cc3)c3ccc(C)n3[B-]2(F)F)C=C1c1cc2n(c1)[B-](F)(F)[N+]1=CC=CC1=C2c1c(C)cc(C)cc1C"
experimental_result = 645

[[record]]
compound_smiles = "COc1ccc(/C=C/c2ccccc2)cc1"
experimental_result = 364

[[record]]
compound_smiles = "Cc1cc(=O)oc2c1cc(Br)c1occ(C)c12"
experimental_result = 400


Problem: Could you tell me which emission maximum is on file for `c1ccc2c(c1)Sc1ccccc1N2c1ccc2c(ccc3nc4ccc5cc(N6c7ccccc7Sc7ccccc76)ccc5c4nc32)c1` ?
Result: 543

Problem: Could you tell me which emission maximum is on file for `CC1=[N+]2C(=C(c3ccc(N(c4ccccc4)c4ccccc4)cc3)c3ccc(C)n3[B-]2(F)F)C=C1c1cc2n(c1)[B-](F)(F)[N+]1=CC=CC1=C2c1c(C)cc(C)cc1C` ?
Result: 645

---

PROCEDURE_TEXT: solvent given as SMILES
EXPERIMENTAL_SETUP: in CN(C)C=O
Each entry below carries its recorded emission maximum.
Form entry: value (nm) — number only.

[[record]]
compound_smiles = "CCCCC[n+]1ccc(/C=C/c2ccc(N(C)C)c3ccccc23)c2ccccc21"
experimental_result = 721

[[record]]
compound_smiles = "COc1ccc([C@@H]2C[C@](O)(c3ccccn3)C[C@](O)(c3ccccn3)[C@H]2C(=O)c2ccc(N(c3ccccc3)c3ccccc3)cc2)cc1"
experimental_result = 521

[[record]]
compound_smiles = "CCCCCCC(CCCCCC)N1C(=O)c2cccc3c(-c4ccc(OC)c5ccccc45)ccc(c23)C1=O"
experimental_result = 581.8


Next up:
Problem: Could you tell me which emission maximum is on file for `CCn1c2ccccc2c2cc(-c3cc(-c4ccc5c(c4)c4ccccc4n5CC)nc(-c4ccccc4)n3)ccc21` ?
Result: 415

The reported numbers originate from the Deep4Chem optical property database.
